Numbers sourced from patent US20120276102A1.

In this section, each of the binders is paired with its reported Murine IL-21R-BaF3 Proliferation IC50.
testSystem: murine IL-21R expressed on cells (murine, UniProt Q9JHX3 20-529)
Sequence (Q9JHX3 20-529 limits assumed): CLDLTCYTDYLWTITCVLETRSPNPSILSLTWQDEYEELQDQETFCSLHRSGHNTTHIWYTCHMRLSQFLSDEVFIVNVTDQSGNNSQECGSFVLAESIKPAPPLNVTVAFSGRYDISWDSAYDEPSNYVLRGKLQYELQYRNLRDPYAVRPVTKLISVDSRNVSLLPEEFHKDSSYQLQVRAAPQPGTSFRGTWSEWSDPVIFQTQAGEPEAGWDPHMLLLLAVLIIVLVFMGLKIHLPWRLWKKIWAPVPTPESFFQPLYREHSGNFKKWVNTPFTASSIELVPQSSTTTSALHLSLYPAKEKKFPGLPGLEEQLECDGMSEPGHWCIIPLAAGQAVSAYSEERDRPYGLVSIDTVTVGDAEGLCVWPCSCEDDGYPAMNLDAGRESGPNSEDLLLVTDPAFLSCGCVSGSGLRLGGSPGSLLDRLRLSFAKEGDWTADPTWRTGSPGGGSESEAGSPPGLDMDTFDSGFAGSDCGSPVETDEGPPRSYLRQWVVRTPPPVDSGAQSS
assayProcedure: cell-based or functional assay
// note: answer is a bare numeric in nM

In the examples that follow, each entry is paired with its recorded Murine IL-21R-BaF3 Proliferation IC50.
{"binder": "AbL (antibody, IgG1, V domains shown, As for AbA: IgG1/lambda, CDR3 graft, residue limits derived; also called VH3/VL13) VH: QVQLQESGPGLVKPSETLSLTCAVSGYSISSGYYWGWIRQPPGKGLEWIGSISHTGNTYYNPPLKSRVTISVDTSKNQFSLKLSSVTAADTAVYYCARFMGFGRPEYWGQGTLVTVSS VL: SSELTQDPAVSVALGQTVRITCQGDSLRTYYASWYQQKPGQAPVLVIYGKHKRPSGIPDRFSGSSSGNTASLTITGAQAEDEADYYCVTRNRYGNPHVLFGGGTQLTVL", "readoutNumber": 0.227}
{"binder": "AbG (antibody, IgG1, V domains shown, As for AbA: IgG1/lambda, CDR3 graft, residue limits derived; also called VHP/VL18) VH: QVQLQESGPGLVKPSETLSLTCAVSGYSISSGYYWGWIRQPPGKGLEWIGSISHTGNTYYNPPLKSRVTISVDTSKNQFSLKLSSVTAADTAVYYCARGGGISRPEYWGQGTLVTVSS VL: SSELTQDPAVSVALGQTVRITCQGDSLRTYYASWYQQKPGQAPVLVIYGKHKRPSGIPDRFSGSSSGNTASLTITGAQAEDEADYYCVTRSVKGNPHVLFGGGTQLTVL", "readoutNumber": 0.07}
{"binder": "AbB (antibody, IgG1, V domains shown, As for AbA: IgG1/lambda, CDR3 graft, residue limits derived; also called VHP/VL3) VH: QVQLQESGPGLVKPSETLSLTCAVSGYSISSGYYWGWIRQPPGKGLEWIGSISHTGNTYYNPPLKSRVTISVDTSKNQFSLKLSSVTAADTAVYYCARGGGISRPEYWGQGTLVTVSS VL: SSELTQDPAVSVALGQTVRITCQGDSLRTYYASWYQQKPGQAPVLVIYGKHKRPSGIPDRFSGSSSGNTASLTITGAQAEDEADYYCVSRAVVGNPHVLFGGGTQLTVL", "readoutNumber": 0.421}
{"binder": "AbK (antibody, IgG1, V domains shown, As for AbA: IgG1/lambda, CDR3 graft, residue limits derived; also called VH3/VL3) VH: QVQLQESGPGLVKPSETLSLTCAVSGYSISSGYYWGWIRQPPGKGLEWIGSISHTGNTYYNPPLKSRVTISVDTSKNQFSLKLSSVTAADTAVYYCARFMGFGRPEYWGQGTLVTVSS VL: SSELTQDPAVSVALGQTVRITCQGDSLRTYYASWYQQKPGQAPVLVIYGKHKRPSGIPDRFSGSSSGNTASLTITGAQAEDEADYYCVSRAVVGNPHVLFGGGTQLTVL", "readoutNumber": 0.079}

Murine IL-21R-BaF3 Proliferation IC50 measured on AbS (antibody, V domains shown, CDR3 graft, residue limits derived as for m29; also called VHP/VL6; VHPTM/VL6) VH: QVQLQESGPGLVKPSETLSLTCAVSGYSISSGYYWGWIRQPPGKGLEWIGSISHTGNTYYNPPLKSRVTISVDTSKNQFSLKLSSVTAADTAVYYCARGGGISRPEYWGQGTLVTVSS VL: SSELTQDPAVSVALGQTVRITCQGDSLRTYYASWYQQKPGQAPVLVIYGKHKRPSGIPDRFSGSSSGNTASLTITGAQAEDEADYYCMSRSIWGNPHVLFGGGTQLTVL = 0.04
